system: S. aureus RN450; experiment: In Vitro Anti-Bacterial Activity Assay (MIC), gram positive; type: cell-based; conditions: Staphylococcus aureus, RN450, 18 h, gram positive bacteria; read-out: Antibiotic Activity Gram + (MIC)
experimentalEndpoint: MIC

# structureSmilesString, system, MIC
records = [
    ("CC(=O)/C=C/c1ccc(O)c2c1C[C@H]1C[C@H]3[C@H](N(C)C)C(O)=C(C(N)=O)C(=O)[C@@]3(O)C(O)=C1C2=O", "S. aureus RN450", "< 4 µg/mL"),
    ("CN(C)c1cc(CN(Cc2ccn[nH]2)Cc2ccn[nH]2)c(O)c2c1C[C@H]1C[C@H]3[C@H](N(C)C)C(O)=C(C(N)=O)C(=O)[C@@]3(O)C(O)=C1C2=O", "S. aureus RN450", "> 4 µg/mL"),
    ("C[C@H]1c2c(N)cc(I)c(O)c2C(=O)C2=C(O)[C@]3(O)C(=O)C(C(N)=O)=C(O)[C@@H](N(C)C)[C@@H]3[C@@H](O)[C@@H]21", "S. aureus RN450", "> 4 µg/mL"),
    ("O=c1cc(-c2ccc(F)cc2)oc2ccccc12", "S. aureus RN450", "< 4 µg/mL"),
    ("CC(C)Cc1cc(N(C)C)c2c(c1O)C(=O)C1=C(O)[C@]3(O)C(=O)C(C(N)=O)=C(O)[C@@H](N(C)C)[C@@H]3C[C@@H]1C2", "S. aureus RN450", "< 4 µg/mL"),
]

Now consider the entry below.
Task: Quick check: MIC on S. aureus RN450, item C/C(=N\OC(C)(C)C)c1ccc(O)c2c1C[C@H]1C[C@H]3[C@H](N(C)C)C(O)=C(C(N)=O)C(=O)[C@@]3(O)C(O)=C1C2=O ?
Output: < 4 µg/mL

* * *

tested on: E. coli mL308 225; assay: In Vitro Anti-Bacterial Activity Assay (MIC), gram negative; format: cell-based; details: Escherichia coli, ML308225, 18 h, gram negative bacteria; read-out: Antibiotic Activity Gram − (MIC)
// values below are reported MIC

# compound, MIC
records = [
    ("NC(=O)C1=C(O)C[C@@H]2C[C@@H]3Cc4cccc(O)c4C(=O)C3=C(O)[C@]2(O)C1=O", "< 4 µg/mL"),
]

Task: Entry CN(C)c1cc(CNCC(C)(C)C)c(O)c2c1C[C@H]1C[C@H]3[C@H](N(C)C)C(O)=C(C(N)=O)C(=O)[C@@]3(O)C(O)=C1C2=O [drawing 3433] has what MIC?
Output: > 4 µg/mL

Task: And the next one, CN(C)c1cc(CN2CCCCC2)c(O)c2c1C[C@H]1C[C@H]3[C@H](N(C)C)C(O)=C(C(N)=O)C(=O)[C@@]3(O)C(O)=C1C2=O ?
Output: < 4 µg/mL

Task: And the next one, COCc1cccc(-c2ccc(O)c3c2C[C@H]2C[C@H]4[C@H](N(C)C)C(O)=C(C(N)=O)C(=O)[C@@]4(O)C(O)=C2C3=O)c1 ?
Output: < 4 µg/mL

Task: And the next one, CCc1cc(CNC(=O)N2CCOCC2)c2c(c1O)C(=O)C1=C(O)[C@]3(O)C(=O)C(C(N)=O)=C(O)[C@@H](N(C)C)[C@@H]3C[C@@H]1C2 ?
Output: > 4 µg/mL

Task: And the next one, CN(C)[C@@H]1C(O)=C(C(N)=O)C(=O)[C@@]2(O)C(O)=C3C(=O)c4c(O)ccc(CNC(=O)c5cnoc5)c4C[C@H]3C[C@@H]12 ?
Output: > 4 µg/mL

* * *

// values below are reported MIC
tested on: E. coli mL308 225; assay: In Vitro Anti-Bacterial Activity Assay (MIC), gram negative; format: cell-based; conditions: Escherichia coli, ML308225, 18 h, gram negative bacteria; read-out: Antibiotic Activity Gram − (MIC)

Past entries and their recorded results:
# structureSmilesString, system, MIC
rows = [
    ("CN(C)[C@@H]1C(O)=C(C(N)=O)C(=O)[C@@]2(O)C(O)=C3C(=O)c4c(O)ccc(-c5ccncc5Cl)c4C[C@H]3C[C@@H]12", "E. coli mL308 225", "< 4 µg/mL"),
    ("CC(=O)Nc1ccc(-c2ccc(O)c3c2C[C@H]2C[C@H]4[C@H](N(C)C)C(O)=C(C(N)=O)C(=O)[C@@]4(O)C(O)=C2C3=O)cc1", "E. coli mL308 225", "> 4 µg/mL"),
]

Task: Entry CN(C)c1cc(CNCC23CC4CC(CC(C4)C2)C3)c(O)c2c1C[C@H]1C[C@H]3[C@H](N(C)C)C(O)=C(C(N)=O)C(=O)[C@@]3(O)C(O)=C1C2=O has what MIC?
Output: < 4 µg/mL

* * *

// values below are reported MIC
test system: E. coli mL308 225; test: In Vitro Anti-Bacterial Activity Assay (MIC), gram negative; assay type: cell-based; conditions: Escherichia coli, ML308225, 18 h, gram negative bacteria; read-out: Antibiotic Activity Gram − (MIC)

# structureSmilesString, endpointValue
data = [
    ("CCN(CC)Cc1cc(-c2ccoc2)c2c(c1O)C(=O)C1=C(O)[C@]3(O)C(=O)C(C(N)=O)=C(O)[C@@H](N(C)C)[C@@H]3C[C@@H]1C2", "> 4 µg/mL"),
]

Task: Quick check: MIC on E. coli mL308 225, item CC(C)OC(=O)c1cccc(-c2ccc(O)c3c2C[C@H]2C[C@H]4[C@H](N(C)C)C(O)=C(C(N)=O)C(=O)[C@@]4(O)C(O)=C2C3=O)c1 ?
Output: < 4 µg/mL

Task: And the next one, CCc1cc(NCC(C)C)c(O)c2c1C[C@H]1C[C@H]3[C@H](N(C)C)C(O)=C(C(N)=O)C(=O)[C@@]3(O)C(O)=C1C2=O ?
Output: < 4 µg/mL

* * *

tested on: S. aureus RN450; assay: In Vitro Anti-Bacterial Activity Assay (MIC), gram positive; assay type: cell-based; conditions: Staphylococcus aureus, RN450, 18 h, MIC class, Table 3 (Continued); read-out: Gram+ activity
experimentalEndpoint: MIC

Past entries and their recorded results:
# compound, experimentalEndpoint, endpointValue
data = [
    ("CC1c2ccc(-c3cc4ccccc4o3)c(O)c2C(=O)C2=C(O)[C@]3(O)C(=O)C(C(N)=O)=C(O)[C@@H](N(C)C)[C@@H]3[C@@H](O)[C@@H]21 (stereo partly drawn)", "MIC", "< 4 µg/mL"),
    ("CC1c2ccc(C3(C)CCCC3)c(O)c2C(=O)C2=C(O)[C@]3(O)C(=O)C(C(N)=O)=C(O)[C@@H](N(C)C)[C@@H]3[C@@H](O)[C@@H]21 (stereo partly drawn)", "MIC", "< 4 µg/mL"),
]

Now consider the entry below.
Task: Entry CC(=O)c1ccc(-c2ccc(O)c3c2C[C@H]2C[C@H]4[C@H](N(C)C)C(O)=C(C(N)=O)C(=O)[C@@]4(O)C(O)=C2C3=O)cc1 has what MIC?
Output: < 4 µg/mL

* * *

system: E. coli mL308 225; test: In Vitro Anti-Bacterial Activity Assay (MIC), gram negative; assay type: cell-based; conditions: Escherichia coli, ML308225, 18 h, gram negative bacteria; read-out: Antibiotic Activity Gram − (MIC)
// values below are reported MIC

Past entries and their recorded results:
# compound, experimentalEndpoint, endpointValue
data = [
    ("CN1CCN(c2cc(N(C)C)c3c(c2O)C(=O)C2=C(O)[C@]4(O)C(=O)C(C(N)=O)=C(O)[C@@H](N(C)C)[C@@H]4C[C@@H]2C3)CC1", "MIC", "> 4 µg/mL"),
    ("Cc1cc(C(C)(C)C)c(O)c2c1C[C@H]1C[C@H]3[C@H](N(C)C)C(O)=C(C(N)=O)C(=O)[C@@]3(O)C(O)=C1C2=O", "MIC", "> 4 µg/mL"),
    ("COC(=O)c1ccc(CNCc2cc(N(C)C)c3c(c2O)C(=O)C2=C(O)[C@]4(O)C(=O)C(C(N)=O)=C(O)[C@@H](N(C)C)[C@@H]4C[C@@H]2C3)cc1", "MIC", "> 4 µg/mL"),
    ("CN(C)c1cc(CNC2C[C@H]3CC[C@@H]2C3)c(O)c2c1C[C@H]1C[C@H]3[C@H](N(C)C)C(O)=C(C(N)=O)C(=O)[C@@]3(O)C(O)=C1C2=O (stereo partly drawn)", "MIC", "< 4 µg/mL"),
    ("CN(C)c1cc(CN2CCC(C(F)(F)F)CC2)c(O)c2c1C[C@H]1C[C@H]3[C@H](N(C)C)C(O)=C(C(N)=O)C(=O)[C@@]3(O)C(O)=C1C2=O", "MIC", "< 4 µg/mL"),
]

Now consider the entry below.
Task: Entry CN(C)[C@@H]1C(O)=C(C(N)=O)C(=O)[C@@]2(O)C(O)=C3C(=O)c4c(O)ccc(-c5ccc(CNCCc6ccc(Cl)cc6)cc5)c4C[C@H]3C[C@@H]12 has what MIC?
Output: < 4 µg/mL
